Assay: NCI Yeast Anticancer Drug Screen. Data for the mec2-1 strain (AID 157)
Settings: S. cerevisiae mec2-1 strain, at 50.0 µM
Method: Growth inhibition of yeast strains with defined genetic alterations is measured as a screen for potential anti-cancer activity. Selected strains with alterations in DNA damage repair or cell cycle control were exposed to compounds and growth inhibition was measured relative to vehicle treated controls. The strain used in this assay is mec2-1
The panel holds about 79,000 compounds, 15% with a hit somewhere; the sample as a whole holds those more often. The source made the active and inactive calls. Cut-off read from the data, not from the text of the source: active = growth inhibition above about 70%; inactive = the rest.
Allowed answers: YES (active), NO (inactive)

Observe how each entry below is paired with its result.
compound: CN(C)c1nc(=Nc2cccc(Cl)c2)ss1
cat: YES
//
compound: Cc1csc(=S)n1OC(=O)NC1CCCCC1
cat: YES
//
compound: CCOC(=N)c1ccc(O)c(OC)c1
cat: NO
//
compound: COc1cc(CSc2ccc(O)cc2)cc(O)c1O
cat: NO
//
compound: O=C(NCCCNCCN1C(=O)c2cccc3cc([N+](=O)[O-])cc(c23)C1=O)c1cc(-c2ccccc2)nc2ccccc12
cat: YES
//
compound: CCOC(=O)C(C(=O)OCC)=P(c1ccccc1)(c1ccccc1)c1ccccc1
cat: NO

Hey, what did the test say about CC(C)CN(CC(C)C)C(=O)c1ccc(Cl)c(Cl)c1 ?
YES

So what was the verdict on CCCOC(=O)C(F)C(Br)C(=O)OCCC (centres undefined) in this test?
YES

Query: recorded result category for N#CC1=C(N)N(/N=C/c2ccccc2)C(c2ccccc2)C1(C#N)C#N (centres undefined) in this test
NO

Look up the recorded call for CC(C)OC(=O)Nc1ccc2nc(-c3cscn3)[nH]c2c1 in this test.
NO

State the result this test recorded for O=C(/C=C(/c1ccccc1)N1CCCCC1)c1ccccc1 .
NO

Record lookup: outcome of this test for CC[N+]1(C)CCC(O)(c2ccc(OC)cc2)C(C(=O)c2ccc(OC)cc2)C1 (centres undefined) ?
NO
